// provenance: the supplement of paper PMC10307832

system: LXF-289; test: relative viability (nuclei count vs DMSO), 5 days (fraction); higher = more cells survive; settings: first compound 2.53 µM
Can you tell me relative viability for the items I'm about to list?

Field: example entries. Status: answers known.
C=C1C(=O)O[C@@H](CCCCCCCC)[C@@H]1C(=O)O [C-75] + O=C(CCCCCCC(=O)Nc1ccccc1)NO [Vorinostat] (partner 1 µM) | 0.781
C=C1C(=O)O[C@@H](CCCCCCCC)[C@@H]1C(=O)O [C-75] + COc1cc2c(Oc3ccc(NC(=O)C4(C(=O)Nc5ccc(F)cc5)CC4)cc3F)ccnc2cc1OCCCN1CCOCC1 [Foretinib] (partner 0.25 µM) | 0.654

Now let's try a different one.
response.value for Oc1nc(-c2ccc(C(F)(F)F)cc2)nc2c1CSCC2 [XAV939] + COc1cccc2cc(-c3nc([C@H]4CC[C@H](C(=O)O)CC4)n4ncnc(N)c34)[nH]c12 [OSI-027] (partner 0.5 µM) (field: relative viability) = 0.658

====

tested on: EBC-1; assay: relative viability (nuclei count vs DMSO), 5 days (fraction); higher = more cells survive; settings: first compound 0.08 µM
Can you tell me relative viability for the items I'm about to list?
One number for each entry.

Respectfully, I request relative viability for each entry included below.
1. C=C1C(=O)O[C@@H](CCCCCCCC)[C@@H]1C(=O)O [C-75] + O=C(c1cc(Cc2n[nH]c(=O)c3ccccc23)ccc1F)N1CCN(C(=O)C2CC2)CC1 [Olaparib] (partner 8 µM)
2. Oc1nc(-c2ccc(C(F)(F)F)cc2)nc2c1CSCC2 [XAV939] + CS(=O)(=O)N1CCN(Cc2cc3nc(-c4cccc5[nH]ncc45)nc(N4CCOCC4)c3s2)CC1 [Pictilisib] (partner 1 µM)

1: 0.62; 2: 0.437

Respectfully, I request relative viability for each entry included below.
1. Oc1nc(-c2ccc(C(F)(F)F)cc2)nc2c1CSCC2 [XAV939] + O=C(c1cc(Cc2n[nH]c(=O)c3ccccc23)ccc1F)N1CCN(C(=O)C2CC2)CC1 [Olaparib] (partner 8 µM)
2. Oc1nc(-c2ccc(C(F)(F)F)cc2)nc2c1CSCC2 [XAV939] + CC1(C)CCC(c2ccc(Cl)cc2)=C(CN2CCN(c3ccc(C(=O)NS(=O)(=O)c4ccc(N[C@H](CCN5CCOCC5)CSc5ccccc5)c(S(=O)(=O)C(F)(F)F)c4)cc3)CC2)C1 [Navitoclax] (partner 0.5 µM)

1. 0.722
2. 0.489

====

tested on: NCI-H2228; assay: relative viability (nuclei count vs DMSO), 5 days (fraction); higher = more cells survive; conditions: first compound 0.005 µM
Can you tell me relative viability for the items I'm about to list?

Field: example entries. Status: answers known.
CC1(C)CCC(c2ccc(Cl)cc2)=C(CN2CCN(c3ccc(C(=O)NS(=O)(=O)c4ccc(N[C@H](CCN5CCOCC5)CSc5ccccc5)c(S(=O)(=O)C(F)(F)F)c4)cc3)CC2)C1 [Navitoclax] + CC(=O)Nc1cccc(-n2c(=O)n(C3CC3)c(=O)c3c(Nc4ccc(I)cc4F)n(C)c(=O)c(C)c32)c1 [Trametinib] (partner 0.02 µM) | 0.476
CC1(C)CCC(c2ccc(Cl)cc2)=C(CN2CCN(c3ccc(C(=O)NS(=O)(=O)c4ccc(N[C@H](CCN5CCOCC5)CSc5ccccc5)c(S(=O)(=O)C(F)(F)F)c4)cc3)CC2)C1 [Navitoclax] + C[C@]1(O)C[C@@H](c2nc(-c3ccc4ccc(-c5ccccc5)nc4c3)c3c(N)nccn32)C1 [Linsitinib] (partner 1 µM) | 0.877

response.value for CC1(C)CCC(c2ccc(Cl)cc2)=C(CN2CCN(c3ccc(C(=O)NS(=O)(=O)c4ccc(N[C@H](CCN5CCOCC5)CSc5ccccc5)c(S(=O)(=O)C(F)(F)F)c4)cc3)CC2)C1 [Navitoclax] + O=C(c1cc(Cc2n[nH]c(=O)c3ccccc23)ccc1F)N1CCN(C(=O)C2CC2)CC1 [Olaparib] (partner 8 µM) (field: relative viability) = 0.941

====

test system: EMC-BAC-2; experiment: relative viability (nuclei count vs DMSO), 5 days (fraction); higher = more cells survive; settings: first compound 0.253 µM
measured.metric: relative viability
One number for each entry.

Field: example entries. Status: answers known.
Oc1nc(-c2ccc(C(F)(F)F)cc2)nc2c1CSCC2 [XAV939] + C[C@]1(O)C[C@@H](c2nc(-c3ccc4ccc(-c5ccccc5)nc4c3)c3c(N)nccn32)C1 [Linsitinib] (partner 1 µM) | 0.705
Oc1nc(-c2ccc(C(F)(F)F)cc2)nc2c1CSCC2 [XAV939] + N=C(N)NC(=N)NCCc1ccccc1 [Phenformin] (partner 250 µM) | 0.459

Now let's try a different one.
Entry Oc1nc(-c2ccc(C(F)(F)F)cc2)nc2c1CSCC2 [XAV939] + CC(C)C[C@H](NC(=O)[C@H](Cc1ccccc1)NC(=O)c1cnccn1)B(O)O [Bortezomib] (partner 0.002 µM) : relative viability on EMC-BAC-2 = 0.946

====

system: NCI-H1755; assay: relative viability (nuclei count vs DMSO), 5 days (fraction); higher = more cells survive; conditions: first compound 0.1 µM
Can you tell me relative viability for the items I'm about to list?
One number for each entry.

Field: example entries. Status: answers known.
NC(=O)Nc1cc(-c2cccc(F)c2)sc1C(=O)N[C@H]1CCCNC1 [AZD7762] + CS(=O)(=O)CCNCc1ccc(-c2ccc3ncnc(Nc4ccc(OCc5cccc(F)c5)c(Cl)c4)c3c2)o1 [Lapatinib] (partner 2 µM) | 1.17
NC(=O)Nc1cc(-c2cccc(F)c2)sc1C(=O)N[C@H]1CCCNC1 [AZD7762] + Nc1nc2[nH]cc(CCc3ccc(C(=O)N[C@@H](CCC(=O)O)C(=O)O)cc3)c2c(=O)[nH]1 [Pemetrexed] (partner 0.2 µM) | 0.401
NC(=O)Nc1cc(-c2cccc(F)c2)sc1C(=O)N[C@H]1CCCNC1 [AZD7762] + CC1(C)CCC(c2ccc(Cl)cc2)=C(CN2CCN(c3ccc(C(=O)NS(=O)(=O)c4ccc(N[C@H](CCN5CCOCC5)CSc5ccccc5)c(S(=O)(=O)C(F)(F)F)c4)cc3)CC2)C1 [Navitoclax] (partner 0.5 µM) | 1.08
NC(=O)Nc1cc(-c2cccc(F)c2)sc1C(=O)N[C@H]1CCCNC1 [AZD7762] + CS(=O)(=O)N1CCN(Cc2cc3nc(-c4cccc5[nH]ncc45)nc(N4CCOCC4)c3s2)CC1 [Pictilisib] (partner 1 µM) | 0.406
NC(=O)Nc1cc(-c2cccc(F)c2)sc1C(=O)N[C@H]1CCCNC1 [AZD7762] + CC(=O)Nc1cccc(-n2c(=O)n(C3CC3)c(=O)c3c(Nc4ccc(I)cc4F)n(C)c(=O)c(C)c32)c1 [Trametinib] (partner 0.02 µM) | 0.76
NC(=O)Nc1cc(-c2cccc(F)c2)sc1C(=O)N[C@H]1CCCNC1 [AZD7762] + Cc1nc(Nc2ncc(C(=O)Nc3c(C)cccc3Cl)s2)cc(N2CCN(CCO)CC2)n1 [Dasatinib] (partner 0.075 µM) | 0.416
NC(=O)Nc1cc(-c2cccc(F)c2)sc1C(=O)N[C@H]1CCCNC1 [AZD7762] + COc1cccc2cc(-c3nc([C@H]4CC[C@H](C(=O)O)CC4)n4ncnc(N)c34)[nH]c12 [OSI-027] (partner 0.5 µM) | 0.722

Now let's try a different one.
Entry NC(=O)Nc1cc(-c2cccc(F)c2)sc1C(=O)N[C@H]1CCCNC1 [AZD7762] + O=C(c1cc(Cc2n[nH]c(=O)c3ccccc23)ccc1F)N1CCN(C(=O)C2CC2)CC1 [Olaparib] (partner 8 µM) : relative viability on NCI-H1755 = 0.957

====

test system: LXF-289; assay: relative viability (nuclei count vs DMSO), 5 days (fraction); higher = more cells survive; details: first compound 0.05 µM
Can you tell me relative viability for the items I'm about to list?
One number for each entry.

Respectfully, I request relative viability for each entry included below.
1. CC1(C)CCC(c2ccc(Cl)cc2)=C(CN2CCN(c3ccc(C(=O)NS(=O)(=O)c4ccc(N[C@H](CCN5CCOCC5)CSc5ccccc5)c(S(=O)(=O)C(F)(F)F)c4)cc3)CC2)C1 [Navitoclax] + C[C@@H](Oc1cc(-c2cnn(C3CCNCC3)c2)cnc1N)c1c(Cl)ccc(F)c1Cl [Crizotinib] (partner 1 µM)
2. CC1(C)CCC(c2ccc(Cl)cc2)=C(CN2CCN(c3ccc(C(=O)NS(=O)(=O)c4ccc(N[C@H](CCN5CCOCC5)CSc5ccccc5)c(S(=O)(=O)C(F)(F)F)c4)cc3)CC2)C1 [Navitoclax] + CC(C)C[C@H](NC(=O)[C@H](Cc1ccccc1)NC(=O)c1cnccn1)B(O)O [Bortezomib] (partner 0.002 µM)
3. CC1(C)CCC(c2ccc(Cl)cc2)=C(CN2CCN(c3ccc(C(=O)NS(=O)(=O)c4ccc(N[C@H](CCN5CCOCC5)CSc5ccccc5)c(S(=O)(=O)C(F)(F)F)c4)cc3)CC2)C1 [Navitoclax] + Nc1nc2[nH]cc(CCc3ccc(C(=O)N[C@@H](CCC(=O)O)C(=O)O)cc3)c2c(=O)[nH]1 [Pemetrexed] (partner 0.2 µM)

[0.787, 0.928, 0.865]

Respectfully, I request relative viability for each entry included below.
1. CC1(C)CCC(c2ccc(Cl)cc2)=C(CN2CCN(c3ccc(C(=O)NS(=O)(=O)c4ccc(N[C@H](CCN5CCOCC5)CSc5ccccc5)c(S(=O)(=O)C(F)(F)F)c4)cc3)CC2)C1 [Navitoclax] + COc1cc2c(Oc3ccc(NC(=O)C4(C(=O)Nc5ccc(F)cc5)CC4)cc3F)ccnc2cc1OCCCN1CCOCC1 [Foretinib] (partner 0.25 µM)
2. CC1(C)CCC(c2ccc(Cl)cc2)=C(CN2CCN(c3ccc(C(=O)NS(=O)(=O)c4ccc(N[C@H](CCN5CCOCC5)CSc5ccccc5)c(S(=O)(=O)C(F)(F)F)c4)cc3)CC2)C1 [Navitoclax] + CCNC(=O)c1noc(-c2cc(C(C)C)c(O)cc2O)c1-c1ccc(CN2CCOCC2)cc1 [Luminespib] (partner 0.01 µM)
3. CC1(C)CCC(c2ccc(Cl)cc2)=C(CN2CCN(c3ccc(C(=O)NS(=O)(=O)c4ccc(N[C@H](CCN5CCOCC5)CSc5ccccc5)c(S(=O)(=O)C(F)(F)F)c4)cc3)CC2)C1 [Navitoclax] + NC(=O)Nc1cc(-c2cccc(F)c2)sc1C(=O)N[C@H]1CCCNC1 [AZD7762] (partner 0.2 µM)

1. 0.924
2. 0.725
3. 0.924
